- assay.system: T1, wild type human CD47 (Acro Biosystems, cat. no. CD7-H5227) (human, UniProt Q08722 19-139)
- T1 construct: Bought protein used as SPR analyte; also called Human CD47 wt; wild-type CD47
- T1 sequence (Q08722 19-139 limits assumed): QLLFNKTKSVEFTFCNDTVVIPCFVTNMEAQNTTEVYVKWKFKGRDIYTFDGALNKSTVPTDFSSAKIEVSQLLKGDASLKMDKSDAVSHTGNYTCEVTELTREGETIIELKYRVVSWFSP
- assay.remarks: SPR, IgG captured, CD47 in flow; exp 3;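 further: other target is a CD47 mutein carrying C33G, used to obtain true monovalent affinity, with kon and koff fitted from SPR binding curves and KD derived from both rates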
experimental.readout: Kd (nM)
Hi! Could you send only the number? It should be in nM, unit omitted.

// field: Kd; key: 108VH4.M4-VL1.M1 (antibody, V domains shown, also called original humanized 108C10A6 antibody) VH: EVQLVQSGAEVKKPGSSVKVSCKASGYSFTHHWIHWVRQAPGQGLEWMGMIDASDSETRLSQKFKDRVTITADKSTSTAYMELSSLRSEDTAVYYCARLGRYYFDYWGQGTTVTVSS VL: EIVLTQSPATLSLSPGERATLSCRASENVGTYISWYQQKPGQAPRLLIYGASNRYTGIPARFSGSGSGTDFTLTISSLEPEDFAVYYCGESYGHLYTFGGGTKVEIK ; value = 0.41

// field: Kd; key: 108VH10.Mj / 108VL10.Me (antibody, V domains shown, 4D5-framework series; constant regions not restated for this series; also called VH10.Mj VL10.Me) VH: EVQLVESGGGLVQPGGSLRLSCAASGFTFSHHWIHWVRQAPGKGLEWVAMIDASDSETRLSQSFKDRFTISADTSKNTAYLQMNSLRAEDTAVYYCSRLGRYYFDYWGQGTLVTVSS VL: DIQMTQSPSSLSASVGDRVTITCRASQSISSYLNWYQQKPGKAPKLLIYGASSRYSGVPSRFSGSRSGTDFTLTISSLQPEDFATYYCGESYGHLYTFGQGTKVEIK ; value = 5.8

// field: Kd; key: 108VH10.Mg / 108VL10.Me (antibody, V domains shown, 4D5-framework series; constant regions not restated for this series; also called VH10.Mg VL10.Me) VH: EVQLVESGGGLVQPGGSLRLSCAASGFTFSHHWIHWVRQAPGKGLEWVAMIDASDSETRLSQKFKDRFTISADTSKNTAYLQMNSLRAEDTAVYYCSRLGRYYFDYWGQGTLVTVSS VL: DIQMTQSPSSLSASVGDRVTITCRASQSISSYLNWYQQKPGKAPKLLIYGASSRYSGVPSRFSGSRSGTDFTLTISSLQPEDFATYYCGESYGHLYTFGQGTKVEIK ; value = 4.8
